# System: gluten-reactive T cells
# EXPERIMENTAL_DETAILS: 96-well plate whole blood cytokine release, IFNγ by MAGPIX multiplex bead assay
# Format: cell-based, human
# CONDITION_SET: Subject 9; after oral gluten challenge; Max. 67 pg/mL
Non-standard residues stand in square brackets, D forms with d. pGlu = O=C1CC[C@@H](C(=O)O)N1
What Percent of maximal response to individual gluten peptides, IFNg was measured for each of the following?

The reported Percent of maximal response to individual gluten peptides, IFNg of the substance (pE)PEQPIPEQPQPYPQQ-amide ([pGlu]PEQPIPEQPQPYPQQ-NH2; SMILES CC[C@H](C)[C@H](NC(=O)[C@@H]1CCCN1C(=O)[C@H](CCC(N)=O)NC(=O)[C@H](CCC(=O)O)NC(=O)[C@@H]1CCCN1C(=O)[C@@H]1CCC(=O)N1)C(=O)N1CCC[C@H]1C(=O)N[C@@H](CCC(=O)O)C(=O)N[C@@H](CCC(N)=O)C(=O)N1CCC[C@H]1C(=O)N[C@@H](CCC(N)=O)C(=O)N1CCC[C@H]1C(=O)N[C@@H](Cc1ccc(O)cc1)C(=O)N1CCC[C@H]1C(=O)N[C@@H](CCC(N)=O)C(=O)N[C@@H](CCC(N)=O)C(N)=O) [Peptide 3] was 60 % of max

For reference, reported Percent of maximal response to individual gluten peptides, IFNg for (pE)QPFPQPEQPFSQQ-amide ([pGlu]QPFPQPEQPFSQQ-NH2; SMILES NC(=O)CC[C@H](NC(=O)[C@H](CCC(N)=O)NC(=O)[C@H](CO)NC(=O)[C@H](Cc1ccccc1)NC(=O)[C@@H]1CCCN1C(=O)[C@H](CCC(N)=O)NC(=O)[C@H](CCC(=O)O)NC(=O)[C@@H]1CCCN1C(=O)[C@H](CCC(N)=O)NC(=O)[C@@H]1CCCN1C(=O)[C@H](Cc1ccccc1)NC(=O)[C@@H]1CCCN1C(=O)[C@H](CCC(N)=O)NC(=O)[C@@H]1CCC(=O)N1)C(N)=O) [Peptide 7] stands at 0 % of max

# Percent of maximal response to individual gluten peptides, IFNg (substance: (pE)PQPYPEQPQPFPQQ-amide ([pGlu]PQPYPEQPQPFPQQ-NH2; SMILES NC(=O)CC[C@H](NC(=O)[C@H](CCC(N)=O)NC(=O)[C@@H]1CCCN1C(=O)[C@H](Cc1ccccc1)NC(=O)[C@@H]1CCCN1C(=O)[C@H](CCC(N)=O)NC(=O)[C@@H]1CCCN1C(=O)[C@H](CCC(N)=O)NC(=O)[C@H](CCC(=O)O)NC(=O)[C@@H]1CCCN1C(=O)[C@H](Cc1ccc(O)cc1)NC(=O)[C@@H]1CCCN1C(=O)[C@H](CCC(N)=O)NC(=O)[C@@H]1CCCN1C(=O)[C@@H]1CCC(=O)N1)C(N)=O) [Peptide 8] ) is 5 % of max

Percent of maximal response to individual gluten peptides, IFNg for (pE)GQQGYYPTSPQQSG-amide ([pGlu]GQQGYYPTSPQQSG-NH2; SMILES C[C@@H](O)[C@H](NC(=O)[C@@H]1CCCN1C(=O)[C@H](Cc1ccc(O)cc1)NC(=O)[C@H](Cc1ccc(O)cc1)NC(=O)CNC(=O)[C@H](CCC(N)=O)NC(=O)[C@H](CCC(N)=O)NC(=O)CNC(=O)[C@@H]1CCC(=O)N1)C(=O)N[C@@H](CO)C(=O)N1CCC[C@H]1C(=O)N[C@@H](CCC(N)=O)C(=O)N[C@@H](CCC(N)=O)C(=O)N[C@@H](CO)C(=O)NCC(N)=O) [Peptide 10] is 0 % of max

For (pE)QPPFSEQEQPVLPQ-amide (N-terminal pyroglutamate; C-terminal amide) [Peptide 13] the substance record lists Percent of maximal response to individual gluten peptides, IFNg as 0 % of max
